experiment: Single-dose (Pristiq 100 mg, oral) pharmacokinetics in healthy volunteers, plasma LC-MS/MS, non-compartmental; assay type: in vivo, human; details: human, plasma, po, 100 mg, 35 healthy volunteers, single oral 100 mg Pristiq, plasma; read-out: T ½, Mean (converted)
ENDPOINT NAME: half-life (min)
All answers are understood in min, so give the number only.

Input: Find the recorded half-life belonging to CN(C)CC(c1ccc(O)cc1)C1(O)CCCCC1 (stereo not shown) and report it.
Output: 566

----------
test: Single-dose (Pristiq 100 mg, oral) pharmacokinetics in healthy volunteers, plasma LC-MS/MS, non-compartmental; format: in vivo, human; details: human, plasma, po, 100 mg, 35 healthy volunteers, single oral 100 mg Pristiq, plasma; read-out: Cmax, Mean
ENDPOINT NAME: Cmax (ng/mL)
Answer in ng/mL, number only, no unit symbol.

Input: Quick one: Cmax for CN(C)CC(c1ccc(O)cc1)C1(O)CCCCC1 (stereo not shown) ?
Output: 290
